# experimental_target: UniProt:P62993
# experiment_summary: Inhibition of recombinant GRB2-SH2 domain
Bridge positions count the residues as written; N and C are the ends. Square brackets hold non-standard residues; d marks the D form. Peptide text beside a SMILES is read from it. Tyr(3-NH2) = Nc1cc(C[C@H](N)C(=O)O)ccc1O; Gla = N[C@@H](CC(C(=O)O)C(=O)O)C(=O)O; Ac6c = NC1(C(=O)O)CCCCC1; Ava = NCCCCC(=O)O
assay_readout: pIC50
Please note pIC50 is a logarithmic value: minus log10 of concentration in mol/L. Answer with that number alone.

Below, 5 molecules whose answers are already recorded.
CC(C)C[C@@H]1NC(=O)[C@H](CCCC(=O)O)NC(=O)C[S+]([O-])C[C@@H](C(N)=O)NC(=O)CCCCNC(=O)[C@H](CC(N)=O)NC(=O)C2(CCCCC2)NC(=O)[C@H](Cc2ccc(O)c(O)c2)NC1=O (some centres not stated) :: 4.06
CC(C)C[C@@H]1NC(=O)[C@H](CC(C(=O)O)C(=O)O)NC(=O)C[S+]([O-])C[C@H](C(N)=O)NC(=O)CCCCNC(=O)[C@H](CC(N)=O)NC(=O)C2(CCCCC2)NC(=O)[C@H](Cc2ccc(O)c(N)c2)NC1=O (some centres not stated) :: 5.81
CC(C)C[C@@H]1NC(=O)[C@H](CCCC(=O)O)NC(=O)C[S+]([O-])C[C@H](C(N)=O)NC(=O)CCCCNC(=O)[C@H](CC(N)=O)NC(=O)C2(CCCCC2)NC(=O)[C@H](Cc2ccc(O)c(O)c2)NC1=O (some centres not stated) :: 3.26
CC(C)C[C@@H]1NC(=O)[C@H](CC(C(=O)O)C(=O)O)NC(=O)CSC[C@@H](C(N)=O)NC(=O)[C@H](CC(N)=O)NC(=O)C2(CCCCC2)NC(=O)[C@H](Cc2ccc(O)c(N)c2)NC1=O ({CH2CO}-[Gla]L[Tyr(3-NH2)][Ac6c]NC-NH2; thioether N-6) :: 4.65
CC(C)C[C@@H]1NC(=O)[C@H](CC(C(=O)O)C(=O)O)NC(=O)CSC[C@@H](C(N)=O)NC(=O)CCCCNC(=O)[C@H](CC(N)=O)NC(=O)C2(CCCCC2)NC(=O)[C@H](Cc2ccc(O)c(N)c2)NC1=O ({CH2CO}-[Gla]L[Tyr(3-NH2)][Ac6c]N[Ava]C-NH2; thioether N-7) :: 6.72

Ask: Look up pIC50: CC(C)C[C@@H]1NC(=O)[C@H](CCCC(=O)O)NC(=O)C[S+]([O-])C[C@H](C(N)=O)NC(=O)CCCCNC(=O)[C@H](CC(N)=O)NC(=O)C2(CCCCC2)NC(=O)[C@H](Cc2ccc(O)c(N)c2)NC1=O (some centres not stated)
Reply: 4.85

Ask: Another molecule to check: CC(C)C[C@@H]1NC(=O)[C@H](CCCC(=O)O)NC(=O)C[S+]([O-])C[C@H](C(N)=O)NC(=O)CCCCNC(=O)[C@H](CC(N)=O)NC(=O)C2(CCCCC2)NC(=O)[C@H](Cc2ccc(O)cc2)NC1=O (some centres not stated)
Reply: 3.00

###

# experimental_target: Growth factor receptor-bound protein 2 (Homo sapiens, UniProt P62993)
# Sequence (P62993 whole entry, the tested form may be a part): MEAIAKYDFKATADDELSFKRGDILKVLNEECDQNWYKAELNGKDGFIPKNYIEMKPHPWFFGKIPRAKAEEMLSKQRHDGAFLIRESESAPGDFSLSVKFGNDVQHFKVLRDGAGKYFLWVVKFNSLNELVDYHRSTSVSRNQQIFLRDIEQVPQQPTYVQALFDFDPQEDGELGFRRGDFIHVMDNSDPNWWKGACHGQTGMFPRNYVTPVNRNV
# experiment_summary: Inhibition of recombinant GRB2-SH2 domain
Bridge positions count the residues as written; N and C are the ends. Square brackets hold non-standard residues; d marks the D form. Peptide text beside a SMILES is read from it. Tyr(3-NO2) = N[C@@H](Cc1ccc(O)c([N+](=O)[O-])c1)C(=O)O; Aad = N[C@@H](CCCC(=O)O)C(=O)O; Ac6c = NC1(C(=O)O)CCCCC1; Ava = NCCCCC(=O)O
Below, each entry is listed with its recorded pIC50.
Please note pIC50 is a logarithmic value: minus log10 of concentration in mol/L. Answer with that number alone.

Below, 2 compounds whose answers are already recorded.
CC(C)C[C@@H]1NC(=O)[C@H](CC(C(=O)O)C(=O)O)NC(=O)C[S+]([O-])C[C@H](C(N)=O)NC(=O)CCNC(=O)[C@H](CC(N)=O)NC(=O)C2(CCCCC2)NC(=O)[C@H](Cc2ccc(O)c(N)c2)NC1=O (some centres undefined) :: 4.95
CC(C)C[C@@H]1NC(=O)[C@H](CCCC(=O)O)NC(=O)CSC[C@@H](C(N)=O)NC(=O)CCCCNC(=O)[C@H](CC(N)=O)NC(=O)C2(CCCCC2)NC(=O)[C@H](Cc2ccc(O)c([N+](=O)[O-])c2)NC1=O ({CH2CO}-[Aad]L[Tyr(3-NO2)][Ac6c]N[Ava]C-NH2; thioether N-7) :: 3.74

Ask: Can you look up pIC50 on Growth factor receptor-bound protein 2 (Homo sapiens, UniProt P62993) for CC(C)C[C@@H]1NC(=O)[C@H](CCCC(=O)O)NC(=O)C[S+]([O-])C[C@H](C(N)=O)NC(=O)CCCCNC(=O)[C@H](CC(N)=O)NC(=O)C2(CCCCC2)NC(=O)[C@H](Cc2ccc(O)c([N+](=O)[O-])c2)NC1=O (some centres undefined) ?
Reply: 3.58

Ask: Another compound to check: CC(C)C[C@@H]1NC(=O)[C@H](CC(C(=O)O)C(=O)O)NC(=O)C[S+]([O-])C[C@H](C(N)=O)NC(=O)[C@H](CC(N)=O)NC(=O)C2(CCCCC2)NC(=O)[C@H](Cc2ccc(O)c(N)c2)NC1=O (some centres undefined)
Reply: 3.70
